# Target: Cytosolic phospholipase A2 (Homo sapiens) (UniProt P47712)
# Sequence (P47712 whole entry): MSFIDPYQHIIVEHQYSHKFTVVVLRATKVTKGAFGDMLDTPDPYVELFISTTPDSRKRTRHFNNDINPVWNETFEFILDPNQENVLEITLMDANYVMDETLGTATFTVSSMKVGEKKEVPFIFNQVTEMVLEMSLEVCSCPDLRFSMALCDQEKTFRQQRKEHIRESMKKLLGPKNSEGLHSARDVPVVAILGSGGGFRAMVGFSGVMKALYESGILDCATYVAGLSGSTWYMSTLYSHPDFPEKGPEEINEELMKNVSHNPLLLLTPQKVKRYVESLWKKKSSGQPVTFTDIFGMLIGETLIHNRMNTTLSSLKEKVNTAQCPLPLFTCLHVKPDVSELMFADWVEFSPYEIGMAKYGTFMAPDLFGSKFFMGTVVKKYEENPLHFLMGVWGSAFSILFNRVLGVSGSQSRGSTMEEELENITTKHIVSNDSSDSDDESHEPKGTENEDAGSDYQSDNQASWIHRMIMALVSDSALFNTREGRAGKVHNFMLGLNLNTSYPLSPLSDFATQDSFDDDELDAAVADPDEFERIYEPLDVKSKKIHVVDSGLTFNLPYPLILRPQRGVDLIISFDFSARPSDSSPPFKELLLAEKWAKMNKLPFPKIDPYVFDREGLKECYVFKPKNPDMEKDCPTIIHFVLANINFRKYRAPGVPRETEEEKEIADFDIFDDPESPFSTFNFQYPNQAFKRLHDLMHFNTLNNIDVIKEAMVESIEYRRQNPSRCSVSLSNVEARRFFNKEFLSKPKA
# Protocol Summary: Inhibition of human group-4 cPLA2 using Triton-X-100/PAPC/arachidonyl-1-14C PAPC/PIP2 substrate mixed micelles at 0.091 mole_fraction by modified dole assay relative to control
Result Type: inhibition (%)

Smiles Code: CCCC[C@@H](COCC(=O)OC(C)(C)C)NC(=O)C(=O)CCCCc1ccc2ccccc2c1
Observed: 85.5

Smiles Code: CCCC[C@@H](COCC(=O)OC(C)(C)C)NC(=O)C(=O)CCCCc1ccccc1
Observed: 82.3

Smiles Code: CCCC[C@H](NC(=O)C(=O)CCCCc1ccc(OC)cc1)C(=O)NCCCC(=O)OCc1ccccc1
Observed: 47.9

Smiles Code: CCCC[C@H](NC(=O)C(=O)CCCCc1ccc(OC)cc1)C(=O)N[C@H](C)C(=O)OC(C)(C)C
Observed: 73.4

Smiles Code: CCCC[C@H](NC(=O)C(=O)CCCCc1ccc(OC)cc1)C(=O)NCCCCC(=O)OC(C)(C)C
Observed: 64.5
